test system: MCF7; experiment: NCI tumour cell line growth inhibition, 48 h
Calls of active or inactive are those of the source. Cut-off read from the data, not from the text of the source: active = GI50 up to about 1.1 µM and inactive = higher.
Outcome codes: active, inactive

{"compound": "COc1ccc(OC)c(C[P+](c2ccccc2)(c2ccccc2)c2ccccc2)c1", "answer label": "inactive"}
{"compound": "CCCC(=O)N(C)/N=N/c1ccc(C(=O)OCC)cc1", "answer label": "inactive"}
{"compound": "O=C1c2[nH]c3ccc(Br)cc3c2CCN1Cc1ccc(Cl)cc1", "answer label": "inactive"}
{"compound": "COCN1C(=O)[C@@H]2CCCN2C(=O)c2cc(N)ccc21", "answer label": "inactive"}
{"compound": "Clc1cc2nc(C3CCCCO3)[nH]c2cc1Cl (configuration not stated)", "answer label": "inactive"}
{"compound": "O=C1c2ccccc2C(=O)c2c1oc(=O)c1ccccc21", "answer label": "inactive"}
{"compound": "COc1c(-c2nc3ccc(N4CCN(C)CC4)nc3[nH]2)cc(OC)c2c1nc(COC(C)=O)n2C", "answer label": "inactive"}
{"compound": "CC[C@]1(Cc2ccc(OC)c(OC)c2)[C@@H]2C[C@@H](C(=O)OC)ON2O[C@H](OC2CCCC2(c2ccccc2)c2ccccc2)[C@@H]1OC(C)=O (some centres not stated)", "answer label": "inactive"}
{"compound": "CC1(C)O[C@H]2OC3CCC(=O)CC3(O)[C@H]2O1 (some centres not stated)", "answer label": "inactive"}
{"compound": "COC(=O)C(Cc1ccccc1)NC(=O)C(CCC(=O)OCc1ccccc1)NC(=O)OC(C)(C)C (configuration not stated)", "answer label": "inactive"}
{"compound": "CN(C)CCNc1ccc(NCC[N+](C)(C)Cc2ccc([N+](=O)[O-])cc2)c2c1C(=O)c1ccccc1C2=O", "answer label": "inactive"}
{"compound": "COc1ccc(OC(=O)N2C/C(=C\\c3ccccc3)C(=O)/C(=C/c3ccccc3)C2)cc1", "answer label": "active"}

----------
tested on: SNB-19; test: NCI tumour cell line growth inhibition, 48 h
Activity calls are given as the source filed them. Cut-off read from the data, not from the text of the source: active = GI50 up to about 1.1 µM and inactive = higher.

{"compound": "COc1cc2c(cc1OCCOS(C)(=O)=O)N=C[C@@H]1CCCN1C2=O", "GI50": "45.3 µM (inactive)"}
{"compound": "COc1ccc(OC(=O)N2C/C(=C\\c3ccccc3)C(=O)/C(=C/c3ccccc3)C2)cc1", "GI50": "4.62 µM (inactive)"}
{"compound": "CCOC(=O)/C(C)=C\\[C@@]1(C)O[C@@H](C)[C@@](C)(OC(C)=O)[C@@H]1OC(C)=O", "GI50": "> 100 µM (inactive)"}
{"compound": "c1ccc2c3nc(C4CCCC4)nc-3c(NC3CCCC3)[nH]c2c1", "GI50": "45.1 µM (inactive)"}
{"compound": "C=CCCCC12CCCc3cccc(c31)NC2=O (stereo not drawn)", "GI50": "23.4 µM (inactive)"}
{"compound": "CCOc1ccc2c(c1)[n+]([O-])c(-c1ccc(Cl)cc1)c(N)[n+]2[O-]", "GI50": "> 100 µM (inactive)"}
{"compound": "COc1ccc(-n2cnnc2-c2nsc3ccccc23)cc1", "GI50": "> 100 µM (inactive)"}
{"compound": "N#CCCC1(CCC#N)CCc2ccccc2C1=O", "GI50": "> 100 µM (inactive)"}
{"compound": "CS(=O)(=O)N(CCC#N)c1ccc(/C=C2\\N=C(c3ccccc3Cl)OC2=O)cc1", "GI50": "> 100 µM (inactive)"}
{"compound": "CC(C)Nc1[nH]c(C(=O)c2ccccc2)c(N)c1C(=S)Nc1ccccc1", "GI50": "> 100 µM (inactive)"}
{"compound": "COc1cc(CC2CCc3nc(N)nc(N)c3C2)cc(OC)c1OC (stereo not drawn)", "GI50": "> 22.9 µM (inactive)"}
{"compound": "COC12C=CC(CC1)C(C)(C)C2OS(C)(=O)=O (stereo not drawn)", "GI50": "> 100 µM (inactive)"}
{"compound": "CCN1C(=O)C(=C/C=C/c2ccc(OC)cc2)C(=O)N(CC)C1=S", "GI50": "37.9 µM (inactive)"}
{"compound": "COc1ccc(N2C(=O)C3CC(c4ccc(Br)cc4)c4c([nH]c5ccccc45)C3C2=O)cc1 (stereo not drawn)", "GI50": "3.43 µM (inactive)"}
{"compound": "O=C1C(CN2CCCCC2)CCC1CN1CCCCC1 (stereo not drawn)", "GI50": "> 100 µM (inactive)"}
{"compound": "CC(=O)OC1C2CCC3CC2C2(SCCS2)C31 (stereo not drawn)", "GI50": "> 100 µM (inactive)"}
{"compound": "C=C1C(=O)CC2C(=O)C(C)(O)CC/C=C(\\C)C(=O)CC12 (stereo not drawn)", "GI50": "> 91.4 µM (inactive)"}
{"compound": "O=CCCCC(Sc1ccccc1)Sc1ccccc1", "GI50": "45.4 µM (inactive)"}
{"compound": "O=c1[nH]cc(COCCCO)c(=O)[nH]1", "GI50": "> 100 µM (inactive)"}
{"compound": "CN(C)CCC(/C=C/c1ccccc1)=N\\Nc1ccc(Cl)cc1Cl", "GI50": "15.5 µM (inactive)"}
{"compound": "O=C1C(Cl)=C(N2CCN(c3ncccn3)CC2)C(=O)c2c(O)ccc(O)c21", "GI50": "6.55 µM (inactive)"}
{"compound": "COc1ccc2c(c1)[C@@]13CCCC[C@H]1[C@@H](C2)N(C)CC3=O", "GI50": "76.9 µM (inactive)"}
{"compound": "COc1nc(C(Cl)(Cl)Cl)c(Cl)c(O)c1Cl", "GI50": "> 100 µM (inactive)"}
